The measured values listed here are drawn from patent US11180474B2.

study-system: human TLR7 (Homo sapiens, UniProt Q9NYK1)
Sequence (Q9NYK1 27-1049): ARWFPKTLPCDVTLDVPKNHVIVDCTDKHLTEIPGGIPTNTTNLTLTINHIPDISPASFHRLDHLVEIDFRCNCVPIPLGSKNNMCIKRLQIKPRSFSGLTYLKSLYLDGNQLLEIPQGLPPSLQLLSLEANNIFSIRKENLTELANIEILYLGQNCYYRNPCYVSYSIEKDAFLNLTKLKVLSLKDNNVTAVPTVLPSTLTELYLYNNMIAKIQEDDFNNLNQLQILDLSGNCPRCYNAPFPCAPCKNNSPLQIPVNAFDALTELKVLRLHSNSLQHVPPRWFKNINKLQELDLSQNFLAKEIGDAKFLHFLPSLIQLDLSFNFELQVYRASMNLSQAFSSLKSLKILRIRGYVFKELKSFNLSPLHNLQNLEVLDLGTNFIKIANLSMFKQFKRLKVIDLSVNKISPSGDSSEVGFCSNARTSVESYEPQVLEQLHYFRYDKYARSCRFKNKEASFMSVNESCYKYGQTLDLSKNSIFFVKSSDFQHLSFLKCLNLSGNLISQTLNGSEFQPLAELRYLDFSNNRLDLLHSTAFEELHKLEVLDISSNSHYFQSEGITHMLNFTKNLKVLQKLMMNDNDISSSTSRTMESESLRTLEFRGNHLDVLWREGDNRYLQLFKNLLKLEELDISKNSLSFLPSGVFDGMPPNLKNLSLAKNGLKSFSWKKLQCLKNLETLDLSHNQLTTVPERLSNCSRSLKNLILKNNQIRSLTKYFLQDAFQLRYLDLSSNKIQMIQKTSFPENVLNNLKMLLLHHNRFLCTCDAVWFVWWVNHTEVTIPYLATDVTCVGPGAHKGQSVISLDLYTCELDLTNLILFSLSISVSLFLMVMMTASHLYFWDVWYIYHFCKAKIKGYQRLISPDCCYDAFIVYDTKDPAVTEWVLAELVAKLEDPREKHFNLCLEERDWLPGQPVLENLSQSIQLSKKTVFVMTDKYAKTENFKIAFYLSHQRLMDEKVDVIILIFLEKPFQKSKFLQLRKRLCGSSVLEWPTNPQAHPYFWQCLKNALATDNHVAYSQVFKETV
test-summary: TLR7 inhibition reporter assay (HEK-Blue cells, SEAP reporter, gardiquimod stimulation)
measurement-context: HEK-Blue cells overexpressing human TLR7, gardiquimod 7.5 μM
Experimental: TLR7/8/9 Inhibition Reporter Assays Briefly, cells are seeded into Greiner 384 well plates (15000 cells per well for TLR7, 20,000 for TLR8 and 25,000 for TLR9) and then treated with test compounds in DMSO to yield a final dose response concentration range of 0.05 nM-50 μM. […] The percent inhibition is determined as the % reduction in the HEK-Blue signal present in wells treated with agonist plus DMSO alone compared to wells treated with a known inhibitor.
pIC50: −log10 of the molar value.
Class Satisfied: pIC50 at least 7. Class Not satisfied: pIC50 below 7.

Before answering, review these 6 worked examples.
1. COc1ccc(-c2[nH]c3ccc(C4CCN(C(=O)CNCCOCCO)CC4)cc3c2C(C)C)cc1OC ... Satisfied
2. COc1ccc(-c2[nH]c3ccc(C4CCN(CCN(C)C)CC4)cc3c2C)cc1OC ... Not satisfied
3. COc1ccc(-c2[nH]c3ccc(C4CCNCC4O)cc3c2C(C)C)cc1OC (single isomer, unassigned) [Example 317, 2,2,2-trifluoroacetate] ... Satisfied
4. COc1ccc(-c2[nH]c3ccc(C4CCN(C(=O)CCn5cccc5)CC4)cc3c2CC(F)(F)F)cc1OC ... Not satisfied
5. COc1ccc(-c2[nH]c3ccc(C4CCN(C(=O)CN5CCCC(C(=O)NC6CCN(C(C)C)CC6)C5)CC4)cc3c2C(C)C)cc1OC (single isomer, unassigned) [Example 280] ... Satisfied
6. CNCCCN1CCC(c2ccc3[nH]c(-c4ccc(OC)c(OC)c4)c(C)c3c2)CC1 ... Not satisfied

Does the compound `COc1ccc(-c2[nH]c3ccc(C4CCN(CC(=O)NCCCO)CC4)cc3c2C(C)C)cc1OC` have recorded pIC50 that is 7 or more?
Satisfied

Would you mind doing `CCc1c(-c2ccc(OC)c(OC)c2)[nH]c2ccc(C3CCN(C4CCN(Cc5ccc(-c6ccccc6)s5)CC4)CC3)cc12` as well?
Not satisfied

Would you mind doing `COc1ccc(-c2[nH]c3ccc(C4CCN(C5CCN(CC(C)(C)C)CC5)CC4)cc3c2C)cc1OC` as well?
Not satisfied

Would you mind doing `CCc1c(-c2ccc(OC)c(OC)c2)[nH]c2ccc(C3CCN(C(=O)C4(C)CCNCC4)CC3)cc12` as well?
Not satisfied

Would you mind doing `CCN(CCN(C)C)C(=O)CN1CCC(c2ccc3[nH]c(-c4ccc(OC)c(OC)c4)c(CC(F)(F)F)c3c2)CC1` as well?
Satisfied

Would you mind doing `COc1ccc(-c2[nH]c3ccc(C4CCN(C5CCN(C(C)C)CC5)CC4)cc3c2CC(F)(F)F)cc1OC` as well?
Satisfied
